TESTED SYSTEM: ER (Homo sapiens, UniProt P03372)
Construct: endogenous in cells; probably T47D or MCF-7
PROTOCOL SUMMARY: In-cell Western (ICW) ER degradation assay in T47D cells
Assay type: cell-based
MEASUREMENT SETUP: T47D cells, 16 hrs
RECORDED ENDPOINT: DC50

Example results:
COc1cc(N2CCC(CN3CCN4c5ccc6c(c5OC[C@H]4C3)CN(C3CCC(=O)NC3=O)C6=O)CC2)ccc1[C@@H]1c2ccc3[nH]ncc3c2C[C@@H](C)N1CC(F)F (stereo partly drawn) :: < 1 nM
C[C@@H]1Cc2c(ccc3[nH]ncc23)[C@@H](c2ccc(N3CCC(CN4CCN5c6cc7c(cc6OC[C@@H]5C4)C(=O)N([C@H]4CCC(=O)NC4=O)C7)CC3)nc2)N1CC(F)(F)F :: < 1 nM

Consider the record given below.
q: DC50 lookup needed for C[C@@H]1Cc2c(ccc3[nH]ncc23)[C@@H](c2ccc(N3CC4(CCC(CN5CCN6c7ccc8c(c7OC[C@H]6C5)CN(C5CCC(=O)NC5=O)C8=O)CC4)C3)cn2)N1CC1(F)CC1 (stereo partly drawn) , thanks.
a: < 1 nM
